Measured maximum absorption wavelength by item
- assay protocol: absorption spectrum (maximum absorption wavelength, molar extinction coefficient)
- Assay type: physicochemical
Response body: numeric value in nm, unit text excluded.

# example entries with known answers
Request: Bench note: what maximum absorption wavelength did COCCOCCNC(=O)CCNc1c(NCCC(=O)NCCOCCOC)c2c(=O)cc(OC)c3c4c(OC)cc(=O)c5c(O)c(OC)c6c(c(c1C=C(C)C6C(C)=O)c23)c54 (centres unmarked) [HB-10a-NH-PEG1] show?
Response: 621

Request: Bench note: what maximum absorption wavelength did CCNNc1c(NNCC)c2c(=O)cc(OC)c3c4c(OC)cc(=O)c5c(O)c(OC)c6c(c(c1C=C(C)C6C(C)=O)c23)c54 (centres unmarked) [HB-36a] show?
Response: 621

Request: Bench note: what maximum absorption wavelength did CCNc1c2c3c4c(c(OC)c(=O)c5c(NC6CCCC6)cc(OC)c(c6c(OC)c(SCCO)c(O)c(c1=O)c36)c54)C(C(C)=O)C(C)=C2 (centres unmarked) [HB-S-44d] show?
Response: 622

Further cases:
Request: Bench note: what maximum absorption wavelength did COCCOC(=O)C1CCCC(Nc2c(NC3CCCC(C(=O)OCCOC)C3)c3c(=O)cc(OC)c4c5c(OC)cc(=O)c6c(O)c(OC)c7c(c(c2C=C(C)C7C(C)=O)c34)c65)C1 (centres unmarked) [HB-15a-PEG1] show?
Response: 624

Request: Bench note: what maximum absorption wavelength did COc1c2c3c4c(c(NCCCC(=O)NCCCCCC[N+](C)(C)C)c(=O)c5c(NCCCC(=O)NCCCCCC[N+](C)(C)C)cc(OC)c(c6c(OC)cc(O)c(c1=O)c63)c54)C=C(C)C2 show?
Response: 634

Request: Bench note: what maximum absorption wavelength did COc1c2c3c4c(c(NCC5CCC(C(=O)O)CC5)c(=O)c5c(O)cc(OC)c(c6c(OC)cc(NCC7CCC(C(=O)O)CC7)c(c1=O)c63)c54)C=C(C)C2C(C)=O (centres unmarked) [HB-13d] show?
Response: 621

Request: Bench note: what maximum absorption wavelength did COCCOCCOCCOCCOCCOCCOCCOCCOCCOCCOCCOCCOC(=O)CCCNc1c2c3c4c(c(OC)c(=O)c5c(O)cc(OC)c(c6c(OC)cc(NCCCC(=O)OCCOCCOCCOCCOCCOCCOCCOCCOCCOCCOCCOCCOC)c(c1=O)c63)c54)CC(C)=C2 show?
Response: 628

Request: Bench note: what maximum absorption wavelength did COc1c2c3c4c(c(NCCCC(=O)O)c(=O)c5c(O)cc(OC)c(c6c(OC)cc(NCCCC(=O)O)c(c1=O)c63)c54)C=C(C)C2C(C)=O (centres unmarked) show?
Response: 624

Request: Bench note: what maximum absorption wavelength did COc1c2c3c4c(c(NC(CO)C(=O)O)c(=O)c5c(O)cc(OC)c(c6c(OC)cc(NC(CO)C(=O)O)c(c1=O)c63)c54)C=C(C)C2C(C)=O (centres unmarked) [HB-23d] show?
Response: 621

Request: Bench note: what maximum absorption wavelength did COc1c2c3c4c(c(NC5CCC(C(=O)O)C5)c(=O)c5c(O)cc(OC)c(c6c(OC)cc(NC7CCC(C(=O)O)C7)c(c1=O)c63)c54)C=C(C)C2C(C)=O (centres unmarked) [HB-19d] show?
Response: 625

Request: Bench note: what maximum absorption wavelength did COc1c2c3c4c(c(NCC(=O)O)c(=O)c5c(NCC(=O)O)cc(OC)c(c6c(OC)cc(O)c(c1=O)c63)c54)C=C(C)C2C(C)=O (centres unmarked) show?
Response: 618
